test-details: UV-NIR spectroscopy of radical cations (IVCT band, Hush analysis)
Assay type: physicochemical
condition-set: predicted from νmax at 298 K
measured-endpoint: ν1/2, Hush (Hush-theory predicted band width) (cm⁻¹)

- smiles-structure: "COc1ccc(N(c2ccc(OC)cc2)c2ccc(N(c3ccc(OC)cc3)c3ccc(OC)cc3)cc2)cc1"
  value-units: "cm⁻¹"
  quantitative-readout: 4756
- smiles-structure: "Cc1ccc(C(F)(F)F)cc1N(c1ccc(N(c2cc(C(F)(F)F)ccc2C)c2cc(C(F)(F)F)ccc2C)cc1)c1cc(C(F)(F)F)ccc1C"
  value-units: "cm⁻¹"
  quantitative-readout: 5448
- smiles-structure: "COc1ccc(N(c2ccc(OC)cc2)c2ccc(-c3ccc(N(c4ccc(OC)cc4)c4ccc(OC)cc4)cc3)cc2)cc1"
  value-units: "cm⁻¹"
  quantitative-readout: 4740
- smiles-structure: "Cc1ccc(C(F)(F)F)cc1N(c1ccc(-c2ccc(N(c3cc(C(F)(F)F)ccc3C)c3cc(C(F)(F)F)ccc3C)cc2)cc1)c1cc(C(F)(F)F)ccc1C"
  value-units: "cm⁻¹"
  quantitative-readout: 4362
